# Test system: Plasmodium falciparum
# assay-method-text: Antiplasmodial activity against asexual blood-stage CQ-sensitive Plasmodium falciparum 3D7 infected in RBC assessed as parasite growth reduction incubated for 72 hrs by SybrGreen dye based analysis
# Format: functional, organism-based
# experimental-setup: 3D7, Erythrocyte
pEC50: −log10 of the molar value.
property-name: pEC50

Write down the reported pEC50 (system: Plasmodium falciparum) of `Clc1ccc(-c2nc(Nc3ccc(I)cc3)c3ccccc3n2)cc1`
< 5.00

Identify measured pEC50 obtained with Plasmodium falciparum for `Cc1ccc(Nc2nc(-c3ccccc3Cl)nc3ccccc23)cc1` .
< 5.00

Identify measured pEC50 obtained with Plasmodium falciparum for c1ccc2c(CCNC3CC4CCC3C4)c[nH]c2c1 (stereo unspecified) .
< 5.00

Give pEC50 for this entry on Plasmodium falciparum: `CCCOc1c(Br)cc(C2C3=C(CCCC3=O)NC3=C2C(=O)CCC3)cc1OC`
< 5.00

Would you please give the reported pEC50 of c1ccc(C23CN4CCN(CC(C4)C2NCc2ccc4c(c2)OCCO4)C3)cc1 (stereo unspecified) with Plasmodium falciparum?
< 5.00

---
Name the recorded pEC50 of c1ccc(C23CN4CCN(CC(C4)C2NCc2nc4ccccc4[nH]2)C3)cc1 (stereo unspecified) , assay system Plasmodium falciparum.
< 5.00

Provide Plasmodium falciparum pEC50 reading for C[C@H]1[C@H](OC(=O)CCC(=O)O)O[C@@H]2O[C@@]3(C)CC[C@H]4[C@H](C)CC[C@@H]1[C@@]24OO3 [ARTESUNATE] .
8.70

Report pEC50 under test system Plasmodium falciparum for `COc1cc2nc(NCCc3nc(=O)c4c(C)c(C)sc4[nH]3)nc(N)c2cc1OC` .
5.86

Please indicate recorded pEC50 of `C=CCc1cc(CN2CCC3(CC2)CN(C)CCN3C)ccc1O` measured with Plasmodium falciparum.
5.83

Give pEC50 for this entry on Plasmodium falciparum: COc1ccc(CN2CCCC(CO)(Cc3ccccc3)C2)c(C)c1C (stereo unspecified)
< 5.00

# return pEC50 for CCc1ccc(C2CC(=O)C3=C(C2)NC(C)=C(C(=O)OCCc2ccccc2)C3c2ccncc2)cc1 (stereo unspecified) , test system: Plasmodium falciparum
4.87

Values were extracted from ChEMBL document CHEMBL5608229.
